Data credit: ChEMBL document CHEMBL1143299

Below, each entry is listed alongside its reported pIC50.
- runDescription: Cytotoxicity agaisnt human KB-3-1 cells by SRB assay
- Type: functional, cell-based
pIC50: −log10 of the molar value.
measuredAttribute: pIC50

[[record]]
molecule = "CCOC(=O)c1ccc(S(=O)(=O)NC(C2=CC(=O)c3c(O)ccc(O)c3C2=O)C(C)C)cc1 (configuration not stated)"
testresult = 4.93

[[record]]
molecule = "CC(NS(=O)(=O)c1ccc(Cl)cc1)C1=CC(=O)c2c(O)ccc(O)c2C1=O (configuration not stated)"
testresult = 5.16


###

Recorded pIC50 values for a group of compounds are listed next.
- Tested on: A549
- runDescription: Cytotoxicity agaisnt human A549 cells by SRB assay
- Assay type: functional, cell-based
pIC50: −log10 of the molar value.
measuredAttribute: pIC50

[[record]]
compound = "CCOC(=O)c1ccc(S(=O)(=O)NC(C2=CC(=O)c3c(O)ccc(O)c3C2=O)C(C)C)cc1 (configuration not stated)"
testresult = 4.94

[[record]]
compound = "CC(NS(=O)(=O)c1ccc(Cl)cc1)C1=CC(=O)c2c(O)ccc(O)c2C1=O (configuration not stated)"
testresult = 5.08


###

- System: HCT-116
- runDescription: Cytotoxicity agaisnt human HCT116 cells by SRB assay
- Assay type: functional, cell-based
measuredAttribute: IC50 (µM)

[[record]]
molecule = "CC(NS(=O)(=O)c1ccc(Cl)cc1)C1=CC(=O)c2c(O)ccc(O)c2C1=O (configuration not stated)"
testresult = 3.2

[[record]]
molecule = "CCOC(=O)c1ccc(S(=O)(=O)NC(C2=CC(=O)c3c(O)ccc(O)c3C2=O)C(C)C)cc1 (configuration not stated)"
testresult = 3.8


###

- System: KB
- runDescription: Cytotoxicity agaisnt vincristine-resistant human KB cells by SRB assay
- Assay type: functional, cell-based
# reported IC50; entries follow
measuredAttribute: IC50 (µM)

[[record]]
molecule = "CC(NS(=O)(=O)c1ccc(Cl)cc1)C1=CC(=O)c2c(O)ccc(O)c2C1=O (configuration not stated)"
testresult = 12.4

[[record]]
molecule = "CCOC(=O)c1ccc(S(=O)(=O)NC(C2=CC(=O)c3c(O)ccc(O)c3C2=O)C(C)C)cc1 (configuration not stated)"
testresult = 13.2

